Value source: paper PMC6273954

test system: J774.A1 cells; assay: Cytotoxicity assay (sulforhodamine B); type: cell-based, murine; conditions: Mus musculus, J774.A1; murine macrophages, 48 h, sulforhodamine B
recorded_metric: log10(IC50) (log10 of the value in µM)

INSERT INTO measurements (compound, result_value) VALUES
  ('COc1ccc(-n2cc(-c3ccc4c(c3)OCO4)nn2)cc1OC [Compound 17]', 0.96),
  ('COc1ccc(-c2cn(-c3cc(OC)c(OC)c(OC)c3)nn2)cc1OC [Compound 14]', 1.90),
  ('COc1ccc(-c2cn(-c3ccc4c(c3)OCO4)nn2)cc1 [Compound 12]', 1.98),
  ('COc1cc(-n2cc(-c3ccc4c(c3)OCO4)nn2)cc(OC)c1OC [Compound 19]', 1.67),
  ('COc1ccc(-n2cc(-c3cc(OC)c(OC)c(OC)c3)nn2)cc1OC [Compound 15]', 1.89),
  ('COc1ccc(-n2cc(-c3ccc(OC)c(OC)c3)nn2)cc1 [Compound 9]', 1.35),
  ('COc1ccc(-c2cn(-c3ccc(OC)cc3)nn2)cc1 [Compound 4]', 2.94),
  ('COc1ccc(-n2cc(-c3cc(OC)c(OC)c(OC)c3)nn2)cc1 [Compound 11]', 1.83),
  ('C[C@@H]1[C@H](O)[C@@H](C)/C=C/C=C/C=C/C=C/C=C/C=C/C=C/[C@H](O[C@@H]2O[C@H](C)[C@@H](O)[C@H](N)[C@@H]2O)C[C@@H]2O[C@](O)(C[C@@H](O)C[C@@H](O)[C@H](O)CC[C@@H](O)C[C@@H](O)CC(=O)O[C@H]1C)C[C@H](O)[C@H]2C(=O)O [Amphotericin B, reference compound]', 0.34),
  ('COc1ccc(-n2cc(-c3ccc4c(c3)OCO4)nn2)cc1 [Compound 13]', 2.13),
  ('COc1ccc(-c2cn(-c3cc(OC)c(OC)c(OC)c3)nn2)cc1 [Compound 10]', 1.82),
  ('c1cc2c(cc1-c1cn(-c3ccc4c(c3)OCO4)nn1)OCO2 [Compound 7]', 1.94),
  ('COc1ccc(-c2cn(-c3ccc(OC)c(OC)c3)nn2)cc1OC [Compound 5]', 1.88);
